# MEASURED_ON: T1, Human β-Klotho (human, UniProt Q86Z14 1-996)
# T1 construct: human β-Klotho, recombinant protein bought from R&D Systems; source: bought: R&D Systems (cat# 5889-KB-050)
# T1 sequence (looked up): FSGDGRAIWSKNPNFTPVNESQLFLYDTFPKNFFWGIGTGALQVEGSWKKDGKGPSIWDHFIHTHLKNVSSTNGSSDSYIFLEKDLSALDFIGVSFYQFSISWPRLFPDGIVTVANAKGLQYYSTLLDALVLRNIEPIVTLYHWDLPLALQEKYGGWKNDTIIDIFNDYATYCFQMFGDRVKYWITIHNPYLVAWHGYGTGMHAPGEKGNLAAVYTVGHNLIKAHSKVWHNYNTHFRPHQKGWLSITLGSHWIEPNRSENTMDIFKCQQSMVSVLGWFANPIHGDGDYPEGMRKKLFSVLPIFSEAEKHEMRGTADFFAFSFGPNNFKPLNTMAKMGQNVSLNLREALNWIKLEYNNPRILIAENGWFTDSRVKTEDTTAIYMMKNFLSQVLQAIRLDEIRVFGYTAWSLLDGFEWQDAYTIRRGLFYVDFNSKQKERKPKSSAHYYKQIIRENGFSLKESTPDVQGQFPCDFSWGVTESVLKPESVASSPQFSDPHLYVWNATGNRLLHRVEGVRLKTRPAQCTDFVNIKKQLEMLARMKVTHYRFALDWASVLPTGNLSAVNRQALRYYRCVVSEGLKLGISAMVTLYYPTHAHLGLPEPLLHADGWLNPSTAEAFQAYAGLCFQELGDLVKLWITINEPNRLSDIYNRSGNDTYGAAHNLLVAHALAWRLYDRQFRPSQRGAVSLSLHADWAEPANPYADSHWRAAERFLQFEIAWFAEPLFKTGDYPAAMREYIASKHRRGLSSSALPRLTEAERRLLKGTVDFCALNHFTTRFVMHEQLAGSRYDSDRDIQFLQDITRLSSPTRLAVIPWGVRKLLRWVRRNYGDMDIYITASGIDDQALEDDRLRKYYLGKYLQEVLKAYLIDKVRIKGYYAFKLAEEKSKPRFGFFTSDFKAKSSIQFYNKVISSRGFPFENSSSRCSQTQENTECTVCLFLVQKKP
# ASSAY_NAME: SPR; Biacore 8K; FGF21s covalently immobilised on CM5 chip by amine coupling (about 700-900 RU); human β-Klotho injected as 2.5-fold series 250 to 1.024 nM at 30 μl/min; 25 °C; HBS-EP+ (10 mM HEPES pH 7.4, 150 mM NaCl, 3 mM EDTA, 0.05% polysorbate 20); global fit, 1:1 Langmuir model
# CONDITION_PARAMETERS: both partners purified
REPORTED_PROPERTY: pKd
# reply with the number alone; pKd is -log10 of concentration in mol/L

htFGF21 variant with S195G, P199G, S200G, Q201H, and A208T mutations (htM5) (ligand, human, UniProt Q9NSA1 33-209, looked up, human FGF21 with S195G, P199G, S200G, Q201H and A208T; A Gly from the TEV site probably remains at the N-terminus (surmised); also called M5 variant; not shown: Trx, N-terminal, cleaved) DSSPLLQFGGQVRQRYLYTDDAQQTEAHLEIREDGTVGGAADQSPESLLQLKALKPGVIQILGVKTSRFLCQRPDGALYGSLHFDPEACSFRELLLEDGYNVYQSEAHGLPLHLPGNKSPHRDPAPRGPARFLPLPGLPPALPEPPGILAPQPPDVGSSDPLGMVGGGHGRSPSYTS: 8.36
wild type human FGF21 purified through heat treatment (htFGF21) (ligand, UniProt Q9NSA1 33-209, looked up, human fibroblast growth factor 21 (FGF21), residues 33-209; The TEV site ENLYFQ/G stood between Trx and FGF21, so a Gly probably remains before residue 33 after cleavage (surmised); also called htWT; wild type htFGF21; not shown: Trx, N-terminal, cleaved) DSSPLLQFGGQVRQRYLYTDDAQQTEAHLEIREDGTVGGAADQSPESLLQLKALKPGVIQILGVKTSRFLCQRPDGALYGSLHFDPEACSFRELLLEDGYNVYQSEAHGLPLHLPGNKSPHRDPAPRGPARFLPLPGLPPALPEPPGILAPQPPDVGSSDPLSMVGPSQGRSPSYAS: 7.89
htFGF21 variant with S195G, P199G, and S200G mutations (htM3) (ligand, human, UniProt Q9NSA1 33-209, looked up, human FGF21 with S195G, P199G and S200G; A Gly from the TEV site probably remains at the N-terminus (surmised); not shown: Trx, N-terminal, cleaved) DSSPLLQFGGQVRQRYLYTDDAQQTEAHLEIREDGTVGGAADQSPESLLQLKALKPGVIQILGVKTSRFLCQRPDGALYGSLHFDPEACSFRELLLEDGYNVYQSEAHGLPLHLPGNKSPHRDPAPRGPARFLPLPGLPPALPEPPGILAPQPPDVGSSDPLGMVGGGQGRSPSYAS: 8.28

Qu. pKd for wild type human FGF21 purified without heating (nFGF21) (ligand, UniProt Q9NSA1 33-209, looked up, human fibroblast growth factor 21 (FGF21), residues 33-209; differs only in that the 100 °C step was left out of the purification; The TEV site ENLYFQ/G stood between Trx and FGF21, so a Gly probably remains before residue 33 after cleavage (surmised); also called fibroblast growth factor 21; wild type FGF21; source: E. coli Rosetta (DE3), purified without heating; not shown: Trx, N-terminal, …) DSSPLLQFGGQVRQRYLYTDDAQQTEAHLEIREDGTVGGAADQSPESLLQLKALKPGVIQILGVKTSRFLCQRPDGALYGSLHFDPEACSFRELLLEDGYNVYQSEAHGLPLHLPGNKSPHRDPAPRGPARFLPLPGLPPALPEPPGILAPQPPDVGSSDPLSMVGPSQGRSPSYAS ?
Ans. 7.89

Qu. pKd for htFGF21 variant with Q201H and A208T mutations (htM2) (ligand, human, UniProt Q9NSA1 33-209, looked up, human FGF21 with Q201H and A208T; A Gly from the TEV site probably remains at the N-terminus (surmised); not shown: Trx, N-terminal, cleaved) DSSPLLQFGGQVRQRYLYTDDAQQTEAHLEIREDGTVGGAADQSPESLLQLKALKPGVIQILGVKTSRFLCQRPDGALYGSLHFDPEACSFRELLLEDGYNVYQSEAHGLPLHLPGNKSPHRDPAPRGPARFLPLPGLPPALPEPPGILAPQPPDVGSSDPLSMVGPSHGRSPSYTS ?
Ans. 7.96
